PROCEDURE_TEXT: soluble on expression in E. coli; label from the status in PepcDB or PDB records

>  <SEQUENCE_TEXT>
MSLYFSGEPAQIAEIKRLASGAVTPLYRRATNEGIQLFLAGSAGLLQTTEDVRFEPCPGLTAAGRGVVSPENIAFTRWLTHLQDGVLLDEQNCLMLHELWLQSGTGRRRWEELPDDARESITALFTPKRGDWCDIWSNEDVSVWWNRLCDNVLPEKTMPFDLLTVLSTRLDVEVNGFNGGVLNGVPSAYHWYTEQYGVKWPCGYEVNISSQGDNFIQVDFDTPWCQPESDVIAVLSRRFSCMLEHWYAGQGCNFCGWQRYERGELVDVLWGELEWSSPTDDDELPEVTAPEWIVDKVAHYGGEGHHHHHH

>  <soluble on expression in E. coli>
not soluble

$$$$
>  <SEQUENCE_TEXT>
MSNVYVMALDFGNGFVKGKINDEKFVIPSRIGRKTNENNQLKGFVDNKLDVSEFIINGNNDEVLLFGNDLDKTTNTGKDTASTNDRYDIKSFKDLVECSIGLLAREVPEEVVNVVIATGMPSNEIGTDKQAKFEKLLNKSRLIEIDGIAKTINVKGVKIVAQPMGTLLDLNMENGKVFKAFTEGKYSVLDFGSGTTIIDTYQNMKRVEEESFVINKGTIDFYKRIASHVSKKSEGASITPRMIEKGLEYKQCKLNQKTVIDFKDEFYKEQDSLIEEVMSNFEITVGNINSIDRIIVTGGGANIHFDSLSHYYSDVFEKADDSQFSNVRGYEKLGELLKNKVEQESKRGSHHHHHH

>  <soluble on expression in E. coli>
soluble

$$$$
>  <SEQUENCE_TEXT>
MGSDKIHHHHHHMRRDVFIETRNVMDFRQKVRALEDFSGEPGFALVFGQAGRGKTETARHYHAMNGGIFLRVMQGWSQCAFLQELCFQVCGLRPRSSATCKAKIIEALDSMPQTLFVDEADRLHVDRVEDLRDVFDLTSSTVVLIGEQELRGLLSTRRRIWSRVKQVVEFGPVAEEDVAILGDEAAGLDIAPEACSQIVRLADGDFRLVWSFIHQLELTAKTHGIQQINTELVARVSKLVASWRQQ

>  <soluble on expression in E. coli>
not soluble

$$$$
>  <SEQUENCE_TEXT>
AENDKPQYLSDWWHQSVNVVGSYHTRFGPQIRNDTYLEYEAFAKKDWFDFYGYADAPVFFGGNSDAKGIWNHGSPLFMEIEPRFSIDKLTNTDLSFGPFKEWYFANNYIYDMGRNKDGRQSTWYMGLGTDIDTGLPMSLSMNVYAKYQWQNYGAANENEWDGYRFKIKYFVPITDLWGGQLSYIGFTNFDWGSDLGDDSGNAINGIKTRTNNSIASSHILALNYDHWHYSVVARYWHDGGQWNDDAELNFGNGNFNVRSTGWGGYLVVGYNFHHHHHH

>  <soluble on expression in E. coli>
soluble

$$$$
>  <SEQUENCE_TEXT>
MASTIAFPAMVKELRLSKNLTMEQLAEEVGKTKSTISKWEKGTRSPKIYEIEEIAKFFGVEPKKMMFGDNPTPTAPQVELIPSTLQKINSTSSQLEHKRQLNVLDYAETQLEQQNTVEEPQATYYTYNYYDHAASAGTGQYLNDVQVETIELPVDYDADFVIPVYGDSMEPKYHSGDYVFVKLSVELTDGDIGVFEYYGDAYIKQLLINDKGAFLHSLNQCGDYPDIPIDRDSDFRIIGEVMGSYRER

>  <soluble on expression in E. coli>
not soluble

$$$$
